Target of assay: T1, GLP-1R in the INS1e assay (UniProt P32301 22-463, limits assumed)
T1 sequence (looked up): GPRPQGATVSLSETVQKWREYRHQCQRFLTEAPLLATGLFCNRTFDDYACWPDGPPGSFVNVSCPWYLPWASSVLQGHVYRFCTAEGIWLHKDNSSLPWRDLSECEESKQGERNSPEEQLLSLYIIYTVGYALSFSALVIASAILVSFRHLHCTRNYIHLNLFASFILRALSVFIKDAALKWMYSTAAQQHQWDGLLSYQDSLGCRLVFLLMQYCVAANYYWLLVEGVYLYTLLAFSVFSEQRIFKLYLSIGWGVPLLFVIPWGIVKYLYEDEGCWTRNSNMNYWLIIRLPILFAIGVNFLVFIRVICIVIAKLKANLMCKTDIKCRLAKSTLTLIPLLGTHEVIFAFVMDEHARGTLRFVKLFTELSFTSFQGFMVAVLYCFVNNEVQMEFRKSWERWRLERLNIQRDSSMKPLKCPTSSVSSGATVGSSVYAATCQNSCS
Assay name: cell-based or functional assay
Starred links: 1 amine or outer side, 2 acyl side, 3 side chain; linkers in the order of their positions; H or OH if unused. Non-standard residues stand in square brackets, D forms with d. Groups on a side chain read outwards from the residue. Primed or numbered codes have the meaning given here. No end group written: not given here. *: point of attachment. γGlu = O=C(O)[C@H](CCC(=O)[*:2])N[*:1]; αMeF = C[C@](N)(Cc1ccccc1)C(=O)O; αMeK = C[C@](N)(CCCCN)C(=O)O; Lauroyl = CCCCCCCCCCCC(=O)*; PEG2′ = not defined here; Aib = CC(C)(N)C(=O)O
Measured endpoint: INS1e assay EC50 (cAMP) Mean (nM)

{"Binder": "H[Aib]EGS[αMeF]TSDK([PEG2′-PEG2′-γGlu-Lauroyl])SSYLEGEAA[αMeK]EFIAK([PEG2′-PEG2′-γGlu-Lauroyl])VVEGG-NH2 [SEQ ID NO: 257]", "Observed measurement": 0.577}
{"Binder": "H[Aib]EGS[αMeF]TSDVSK([PEG2′-PEG2′-γGlu-Lauroyl])YLEGEAA[αMeK]EFIAWK([PEG2′-PEG2′-γGlu-Lauroyl])VEGG-NH2 [SEQ ID NO: 253]", "Observed measurement": 2.11}
